These entries and their values trace back to the supplement of paper PMC10567573.

Reported protein stability index is given for each of the following variants.
B1: WDR41 (parent)
chain: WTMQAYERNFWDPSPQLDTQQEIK

Variants of: B1
METHOD NOTES: protein stability index of a GFP-peptide fusion (GPS, HEK-293T) (PSI 1-6); higher = more stable;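 further: lentivirally expressed fusions sorted by FACS into six bins by GFP to DsRed ratio, PSI derived from sequencing read proportions per bin multiplied by bin number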
TEST CONTEXT: c terminus: a fixed tail appended
OBSERVABLE: protein stability index

>>> readout_value("D18C")
1.95
>>> readout_value("P15S")
2.02
>>> readout_value("Q4E")
2.05
